target: Disintegrin and metalloproteinase domain-containing protein 17 (Homo sapiens, UniProt P78536)
Sequence (P78536 whole entry, the tested form may be a part): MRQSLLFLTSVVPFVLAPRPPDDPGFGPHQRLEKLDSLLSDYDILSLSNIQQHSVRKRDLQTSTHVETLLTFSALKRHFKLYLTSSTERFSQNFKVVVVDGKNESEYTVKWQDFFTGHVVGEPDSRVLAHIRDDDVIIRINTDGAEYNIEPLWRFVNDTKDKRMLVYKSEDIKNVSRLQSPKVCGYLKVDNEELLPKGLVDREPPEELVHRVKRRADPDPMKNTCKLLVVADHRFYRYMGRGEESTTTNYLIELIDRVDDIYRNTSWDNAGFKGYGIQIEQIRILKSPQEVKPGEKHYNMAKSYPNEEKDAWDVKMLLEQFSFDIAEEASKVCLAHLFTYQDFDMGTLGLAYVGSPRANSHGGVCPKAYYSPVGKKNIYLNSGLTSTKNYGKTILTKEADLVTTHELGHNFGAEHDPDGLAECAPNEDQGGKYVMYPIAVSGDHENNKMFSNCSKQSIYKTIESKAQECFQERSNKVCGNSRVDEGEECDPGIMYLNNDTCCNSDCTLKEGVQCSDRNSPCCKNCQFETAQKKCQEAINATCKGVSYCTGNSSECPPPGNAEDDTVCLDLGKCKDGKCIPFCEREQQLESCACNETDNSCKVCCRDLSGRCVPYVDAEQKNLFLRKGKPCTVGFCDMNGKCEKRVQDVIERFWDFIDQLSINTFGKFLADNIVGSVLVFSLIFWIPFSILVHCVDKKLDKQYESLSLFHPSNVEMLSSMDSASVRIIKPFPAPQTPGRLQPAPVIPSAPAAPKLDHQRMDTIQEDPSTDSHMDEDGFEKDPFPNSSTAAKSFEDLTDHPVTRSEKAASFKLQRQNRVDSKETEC
QUANTITY_NAME: pKi
Bear in mind: pKi is minus log10 of a mol/L concentration; give just that figure.

Recorded result, CNc1nc(C2(C)CCCN2C(=O)[C@H](O)[C@@H](O)C(=O)N[C@H](C)c2ccc(-n3cccn3)cc2)cs1 (mixture of isomers) , pKi: 8.05

Recorded result, `CCNc1nc([C@H]2C[C@@H](C)CN2C(=O)[C@H](O)[C@@H](O)C(=O)N[C@H](C)c2ccc(-n3cccn3)cc2)cs1` , pKi: 8.22

Recorded result, COc1cc2c(cc1OC)C(c1ccccc1)N(C(=O)[C@H](O)[C@@H](O)C(=O)N[C@H](C)c1ccc(-n3cccn3)cc1)CC2 (mixture of isomers) , pKi: 9.05

Recorded result, C[C@@H](NC(=O)[C@H](O)[C@@H](O)C(=O)N1CCCCC1c1ccccc1)c1ccc(-n2cccn2)cc1 (mixture of isomers) , pKi: 7.85

Recorded result, `CNc1nc([C@H]2c3ccc(F)cc3CN2C(=O)[C@H](O)[C@@H](O)C(=O)N[C@H](C)c2ccc(-n3cccn3)cc2)cs1` , pKi: 8.70

Recorded result, `COc1cc2c(cc1OC)[C@H](c1ccccc1)CN(C(=O)[C@H](O)[C@@H](O)C(=O)N[C@H](C)c1ccc(-n3cccn3)cc1)CC2` , pKi: 7.42

Recorded result, `Cc1nc([C@H]2CCCN2C(=O)[C@H](O)[C@@H](O)C(=O)N[C@H](C)c2ccc(-n3cccn3)cc2)cs1` , pKi: 8.00

====

target: Disintegrin and metalloproteinase domain-containing protein 17 (Homo sapiens, UniProt P78536)
QUANTITY_NAME: IC50

Recorded result, `CCNc1nc([C@H]2C[C@@H](C)CN2C(=O)[C@H](O)[C@@H](O)C(=O)N[C@H](C)c2ccc(-n3cccn3)cc2)cs1` , IC50: 4040 nM

Recorded result, `CNc1nc([C@H]2C[C@H]3C[C@H]3N2C(=O)[C@H](O)[C@@H](O)C(=O)N[C@H](C)c2ccc(-n3cccn3)cc2)cs1` , IC50: 707 nM

Recorded result, `CCNc1nc([C@H]2c3cnc(N)nc3CN2C(=O)[C@H](O)[C@@H](O)C(=O)N[C@H](C)c2ccc(-n3cccn3)cc2)cs1` , IC50: 257 nM

Recorded result, `C[C@@H](NC(=O)[C@H](O)[C@@H](O)C(=O)N1CCC[C@@H]1c1csc(N)n1)c1ccc(-n2cccn2)cc1` , IC50: 4290 nM

Recorded result, `CNc1nc([C@H]2c3cc(F)ccc3CN2C(=O)[C@H](O)[C@@H](O)C(=O)N[C@H](C)c2ccc(-n3cccn3)cc2)cs1` , IC50: 384 nM

Recorded result, `CNc1nc([C@H]2C=CCN2C(=O)[C@H](O)[C@@H](O)C(=O)N[C@H](C)c2ccc(-n3cccn3)cc2)cs1` , IC50: 1340 nM

Recorded result, `CNc1nc([C@H]2CCCN2C(=O)[C@H](O)[C@@H](O)C(=O)N[C@H](C)c2ccc(-n3cccn3)cc2)cs1` , IC50: 5800 nM

Recorded result, `CC(C)Nc1nc([C@H]2CCCN2C(=O)[C@H](O)[C@@H](O)C(=O)N[C@H](C)c2ccc(-n3cccn3)cc2)cs1` , IC50: 6680 nM

====

Give measured pKi for each item. Keep answers brief.
target: Disintegrin and metalloproteinase domain-containing protein 17 (Homo sapiens, UniProt P78536)
Bear in mind: pKi is minus log10 of a mol/L concentration; give just that figure.

Recorded result, `CCNc1nc([C@H]2c3cnc(N)nc3CN2C(=O)[C@H](O)[C@@H](O)C(=O)N[C@H](C)c2ccc(-n3cccn3)cc2)cs1` , pKi: 9.30

Recorded result, `CNc1nc([C@H]2c3ccccc3CN2C(=O)[C@H](O)[C@@H](O)C(=O)N[C@H](C)c2ccc(-n3cccn3)cc2)cs1` , pKi: 9.00

Recorded result, `C[C@@H](NC(=O)[C@H](O)[C@@H](O)C(=O)N1CCC[C@]1(C)c1cccc(Cl)c1)c1ccc(-n2cccn2)cc1` , pKi: 9.40

Recorded result, `CCCNc1nc([C@H]2CCCN2C(=O)[C@H](O)[C@@H](O)C(=O)N[C@H](C)c2ccc(-n3cccn3)cc2)cs1` , pKi: 8.40

Recorded result, `C[C@@H](NC(=O)[C@H](O)[C@@H](O)C(=O)N1CCC[C@@H]1c1csc(N(C)C)n1)c1ccc(-n2cccn2)cc1` , pKi: 7.19

====

Give measured pIC50 for each item. Keep answers brief.
Bear in mind: pIC50 is minus log10 of a mol/L concentration; give just that figure.

Here `CNc1nc([C@H]2CC(F)(F)CN2C(=O)[C@H](O)[C@@H](O)C(=O)N[C@H](C)c2ccc(-n3cccn3)cc2)cs1` was tested on Disintegrin and metalloproteinase domain-containing protein 17 (Homo sapiens), and its pIC50 came to 5.56

Here `CNc1nc([C@H]2CCCN2C(=O)[C@H](O)[C@@H](O)C(=O)N[C@H](C)c2ccc(-n3cccn3)cc2)c(C#N)s1` was tested on Disintegrin and metalloproteinase domain-containing protein 17 (Homo sapiens), and its pIC50 came to 5.52

Here `C[C@@H](NC(=O)[C@H](O)[C@@H](O)C(=O)N1CCC[C@@H]1c1csc(NC2CC2)n1)c1ccc(-n2cccn2)cc1` was tested on Disintegrin and metalloproteinase domain-containing protein 17 (Homo sapiens), and its pIC50 came to 5.52

====

Give measured pKi for each item. Keep answers brief.
molecular target: Disintegrin and metalloproteinase domain-containing protein 17 (Homo sapiens, UniProt P78536)
Bear in mind: pKi is minus log10 of a mol/L concentration; give just that figure.

Recorded result, `CCNc1nc([C@H]2CCCN2C(=O)[C@H](O)[C@@H](O)C(=O)N[C@H](C)c2ccc(-n3cccn3)cc2)cs1` , pKi: 8.15

Recorded result, `C[C@@H](NC(=O)[C@H](O)[C@@H](O)C(=O)N1CCC[C@@H]1c1csc(Nc2ccccc2F)n1)c1ccc(-n2cccn2)cc1` , pKi: 9.00

Recorded result, `C[C@@H](NC(=O)[C@H](O)[C@@H](O)C(=O)N1CCC[C@@H]1c1cc[nH]n1)c1ccc(-n2cccn2)cc1` , pKi: 8.30

Recorded result, `C[C@@H](NC(=O)[C@H](O)[C@@H](O)C(=O)N1CC=C[C@@H]1c1cccc(Cl)c1)c1ccc(-n2cccn2)cc1` , pKi: 9.30

Recorded result, `C[C@@H](NC(=O)[C@H](O)[C@@H](O)C(=O)N1CCC[C@@H]1c1ccn(C)n1)c1ccc(-n2cccn2)cc1` , pKi: 8.40

Recorded result, `CNc1nc([C@H]2C[C@H]3C[C@H]3N2C(=O)[C@H](O)[C@@H](O)C(=O)N[C@H](C)c2ccc(-n3cccn3)cc2)cs1` , pKi: 9.00

Recorded result, `CNc1nc([C@H]2CCCN2C(=O)[C@H](O)[C@@H](O)C(=O)N[C@H](C)c2ccc(-n3cccn3)cc2)cs1` , pKi: 8.15

Recorded result, `CNc1nc([C@H]2CCCN2C(=O)[C@H](O)[C@@H](O)C(=O)N[C@H](C)c2ccc(-n3cccn3)cc2)c(C#N)s1` , pKi: 8.70

Recorded result, `C[C@@H](NC(=O)[C@H](O)[C@@H](O)C(=O)N1CCC[C@@H]1c1nccs1)c1ccc(-n2cccn2)cc1` , pKi: 8.00

Recorded result, `CNc1nc([C@H]2CC(F)(F)CN2C(=O)[C@H](O)[C@@H](O)C(=O)N[C@H](C)c2ccc(-n3cccn3)cc2)cs1` , pKi: 8.40

Recorded result, `C[C@@H](NC(=O)[C@H](O)[C@@H](O)C(=O)N1CCC[C@@H]1c1csc(Nc2cccnc2)n1)c1ccc(-n2cccn2)cc1` , pKi: 8.70

Recorded result, `CNc1nc([C@H]2C=CCN2C(=O)[C@H](O)[C@@H](O)C(=O)N[C@H](C)c2ccc(-n3cccn3)cc2)cs1` , pKi: 9.22

Recorded result, `CNc1nc([C@H]2c3cc(F)ccc3CN2C(=O)[C@H](O)[C@@H](O)C(=O)N[C@H](C)c2ccc(-n3cccn3)cc2)cs1` , pKi: 7.80

Recorded result, `CNc1nc([C@H]2CCCN2C(=O)[C@H](O)[C@@H](O)C(=O)N[C@H](C)c2ccc(-n3cccn3)cc2)c(C2CC2)s1` , pKi: 8.70

Recorded result, `CC(C)Nc1nc([C@H]2CCCN2C(=O)[C@H](O)[C@@H](O)C(=O)N[C@H](C)c2ccc(-n3cccn3)cc2)cs1` , pKi: 7.77

Recorded result, `C[C@@H](NC(=O)[C@H](O)[C@@H](O)C(=O)N1CCC[C@@H]1c1csc(N)n1)c1ccc(-n2cccn2)cc1` , pKi: 8.22

Recorded result, C[C@@H](NC(=O)[C@H](O)[C@@H](O)C(=O)N1CCCCC1c1cccc(Cl)c1)c1ccc(-n2cccn2)cc1 (mixture of isomers) , pKi: 7.06

Recorded result, `C[C@@H](NC(=O)[C@H](O)[C@@H](O)C(=O)N1CCC[C@@H]1c1csc(N2CCCCC2)n1)c1ccc(-n2cccn2)cc1` , pKi: 7.41

Recorded result, C[C@@H](NC(=O)[C@H](O)[C@@H](O)C(=O)N1CC[C@H](O)C1c1cccc(Cl)c1)c1ccc(-n2cccn2)cc1 (mixture of isomers) , pKi: 8.17

These measurements were taken from ChEMBL document CHEMBL1770127.
